# Tested on: CAS-1 (Glioblastoma)
# assayMethodText: combination Emax (second highest fraction inhibited in the dose matrix, 72 h); higher = more inhibition; extreme values may be limits of the assay
This section presents molecules with their documented combination Emax values.

Known results for molecules:
C=CCn1c(=O)c2cnc(Nc3ccc(N4CCN(C)CC4)cc3)nc2n1-c1cccc(C(C)(C)O)n1 [AZD1775] + C1CN(CCC1(C(=O)N[C@@H](CCO)C2=CC=C(C=C2)Cl)N)C3=NC=NC4=C3C=CN4 [Capivasertib] (first compound max 3 µM, partner max 3 µM)
0.709
COc1cccc(OCCCN)c1-c1cc(Nc2cnc(C#N)cn2)n[nH]1 [Prexasertib] + C=CCn1c(=O)c2cnc(Nc3ccc(N4CCN(C)CC4)cc3)nc2n1-c1cccc(C(C)(C)O)n1 [AZD1775] (first compound max 1 µM, partner max 1 µM)
0.696
CC1(C)CCC(CN2CCN(c3ccc(C(=O)NS(=O)(=O)c4ccc(NCC5CCOCC5)c([N+](=O)[O-])c4)c(Oc4cnc5[nH]ccc5c4)c3)CC2)=C(c2ccc(Cl)cc2)C1 [Venetoclax] + Cc1cc2ncnn2cc1Nc1ncc2c(n1)n(C1CCOCC1)c(=O)n2C [AZD7648] (first compound max 1 µM, 7x7, partner max 10 µM)
0.279
CCc1c2c(nc3ccc(O)cc13)-c1cc3c(c(=O)n1C2)COC(=O)[C@]3(O)CC [SN-38] + O=C(c1cc(Cc2n[nH]c(=O)c3ccccc23)ccc1F)N1CCN(C(=O)C2CC2)CC1 [Olaparib] (first compound max 0.3 µM, 7x7, partner max 10 µM)
0.609
CC(=O)c1c(C)c2cnc(Nc3ccc(N4CCNCC4)cn3)nc2n(C2CCCC2)c1=O [Palbociclib] + Cc1c2c(nn1C)CSCc1cc(n(C)n1)CSc1cc(c3ccccc3c1)OCCCc1c(C(=O)O)n(C)c3c-2c(Cl)ccc13 [AZD5991] (first compound max 10 µM, 7x7, partner max 1 µM)
0.32
CN(CCO)CC[C@H](CSc1ccccc1)Nc1ccc(S(=O)(=O)NC(=O)c2ccc(N3CCC([C@@H](O)c4ccccc4-c4ccc(Cl)cc4)CC3)cc2)cc1S(=O)(=O)C(F)(F)F [AZD4320] + CN(C)CCCOc1ccc(-c2ccc3ncc4c(c3c2)n(C2CCOCC2)c(=O)n4C)cn1 [AZD0156] (first compound max 1 µM, 7x7, partner max 1 µM)
0.229

INPUT: I would be grateful if you could share the reported combination Emax for CN(CCO)CC[C@H](CSc1ccccc1)Nc1ccc(S(=O)(=O)NC(=O)c2ccc(N3CCC([C@@H](O)c4ccccc4-c4ccc(Cl)cc4)CC3)cc2)cc1S(=O)(=O)C(F)(F)F [AZD4320] + C[C@@H](Nc1cc(F)cc(F)c1)c1cc(C(=O)N(C)C)cc2c(=O)cc(N3CCOCC3)oc12 [AZD8186] (first compound max 1 µM, 7x7, partner max 3 µM) .
OUTPUT: 0.623

INPUT: Look at this molecule and give its reported combination Emax. COc1cccc2c1C(=O)c1c(O)c3c(c(O)c1C2=O)C[C@@](O)(C(=O)CO)C[C@@H]3O[C@H]1C[C@H](N)[C@H](O)[C@H](C)O1 [Doxorubicin] + Cc1cc2ncnn2cc1Nc1ncc2c(n1)n(C1CCOCC1)c(=O)n2C [AZD7648] (first compound max 1 µM, 7x7, partner max 10 µM)
OUTPUT: 0.775

INPUT: Give the measured combination Emax of CC1(C)CCC(CN2CCN(c3ccc(C(=O)NS(=O)(=O)c4ccc(NCC5CCOCC5)c([N+](=O)[O-])c4)c(Oc4cnc5[nH]ccc5c4)c3)CC2)=C(c2ccc(Cl)cc2)C1 [Venetoclax] + C[C@@H](Nc1cc(F)cc(F)c1)c1cc(C(=O)N(C)C)cc2c(=O)cc(N3CCOCC3)oc12 [AZD8186] (first compound max 1 µM, 7x7, partner max 3 µM) .
OUTPUT: 0.399

INPUT: What does the data say about its combination Emax? Entry: Cc1cc2ncnn2cc1Nc1ncc2c(n1)n(C1CCOCC1)c(=O)n2C [AZD7648] + CN(C)CCCOc1ccc(-c2ccc3ncc4c(c3c2)n(C2CCOCC2)c(=O)n4C)cn1 [AZD0156] (first compound max 10 µM, 7x7, partner max 1 µM)
OUTPUT: 0.314

INPUT: Record request: combination Emax value, item CN(CCO)CC[C@H](CSc1ccccc1)Nc1ccc(S(=O)(=O)NC(=O)c2ccc(N3CCC([C@@H](O)c4ccccc4-c4ccc(Cl)cc4)CC3)cc2)cc1S(=O)(=O)C(F)(F)F [AZD4320] + C=CCn1c(=O)c2cnc(Nc3ccc(N4CCN(C)CC4)cc3)nc2n1-c1cccc(C(C)(C)O)n1 [AZD1775] (first compound max 1 µM, partner max 1 µM)
OUTPUT: 0.713

INPUT: So what does the record say about combination Emax for CCc1c2c(nc3ccc(O)cc13)-c1cc3c(c(=O)n1C2)COC(=O)[C@]3(O)CC [SN-38] + CN(C)CCCOc1ccc(-c2ccc3ncc4c(c3c2)n(C2CCOCC2)c(=O)n4C)cn1 [AZD0156] (first compound max 0.3 µM, 7x7, partner max 1 µM) ?
OUTPUT: 0.494

INPUT: What measured combination Emax goes with Cc1c2c(nn1C)CSCc1cc(n(C)n1)CSc1cc(c3ccccc3c1)OCCCc1c(C(=O)O)n(C)c3c-2c(Cl)ccc13 [AZD5991] + C1CN(CCC1(C(=O)N[C@@H](CCO)C2=CC=C(C=C2)Cl)N)C3=NC=NC4=C3C=CN4 [Capivasertib] (first compound max 1 µM, 7x7, partner max 3 µM) ?
OUTPUT: 0.573

----------
# Tested on: HCC1954 (Breast Carcinoma);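 also: after 72 h of two-drug dosing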
# assayMethodText: Bliss excess, mean over the matrix (fraction); higher = more synergy
Bliss excess below 0.04 gives 0.0; Bliss excess at or above it gives 1.0.

Cc1c2c(nn1C)CSCc1cc(n(C)n1)CSc1cc(c3ccccc3c1)OCCCc1c(C(=O)O)n(C)c3c-2c(Cl)ccc13 [AZD5991] + CCN(CCO)CCCOc1ccc2c(Nc3cc(CC(=O)Nc4cccc(F)c4)[nH]n3)ncnc2c1 [AZD2811] (first compound max 1 µM, 7x7, partner max 1 µM)
1.0

From here, focus on the item given below.
INPUT: Say whether CC(=O)c1c(C)c2cnc(Nc3ccc(N4CCNCC4)cn3)nc2n(C2CCCC2)c1=O [Palbociclib] + CN(CC[C@H](CSC1=CC=CC=C1)NC2=C(C=C(C=C2)S(=O)(=O)NC(=O)C3=CC=C(C=C3)N4CCC(CC4)[C@H](C5=CC=CC=C5C6=CC=C(C=C6)Cl)O)S(=O)(=O)C(F)(F)F)CCO [AZD4320] (first compound max 10 µM, 7x7, partner max 1 µM) shows Bliss excess of 0.04 or more.
OUTPUT: 0.0

----------
# Test system: U-2-OS (Osteosarcoma)
# assayMethodText: combination Emax (second highest fraction inhibited in the dose matrix, 72 h); higher = more inhibition; extreme values may be limits of the assay
Each entry below carries its reported combination Emax.
Respond using a number only.

Illustrative cases are given below, each with its answer.
COc1cc2ncnc(Nc3ccc(F)c(Cl)c3)c2cc1OCCCN1CCOCC1 [Gefitinib] + CC(C)n1c(=O)n(C)c2cnc3cc(F)c(-c4ccc(OCCCN5CCCCC5)nc4)cc3c21 [AZD1390] (first compound max 10 µM, 7x7, partner max 0.3 µM)
0.0294
C[C@@H](Nc1cc(F)cc(F)c1)c1cc(C(=O)N(C)C)cc2c(=O)cc(N3CCOCC3)oc12 [AZD8186] + CC(=O)c1c(C)c2cnc(Nc3ccc(N4CCNCC4)cn3)nc2n(C2CCCC2)c1=O [Palbociclib] (first compound max 10 µM, 7x7, partner max 10 µM)
0.391
CC1(C)CCC(CN2CCN(c3ccc(C(=O)NS(=O)(=O)c4ccc(NCC5CCOCC5)c([N+](=O)[O-])c4)c(Oc4cnc5[nH]ccc5c4)c3)CC2)=C(c2ccc(Cl)cc2)C1 [Venetoclax] + C[C@@H](Nc1cc(F)cc(F)c1)c1cc(C(=O)N(C)C)cc2c(=O)cc(N3CCOCC3)oc12 [AZD8186] (first compound max 1 µM, 7x7, partner max 3 µM)
0.139

INPUT: Consider the molecule Cc1c2c(nn1C)CSCc1cc(n(C)n1)CSc1cc(c3ccccc3c1)OCCCc1c(C(=O)O)n(C)c3c-2c(Cl)ccc13 [AZD5991] + C1CN(CCC1(C(=O)N[C@@H](CCO)C2=CC=C(C=C2)Cl)N)C3=NC=NC4=C3C=CN4 [Capivasertib] (first compound max 1 µM, 7x7, partner max 3 µM) and give its measured combination Emax.
OUTPUT: 0.219

INPUT: // returns reported combination Emax for input CN(CCO)CC[C@H](CSc1ccccc1)Nc1ccc(S(=O)(=O)NC(=O)c2ccc(N3CCC([C@@H](O)c4ccccc4-c4ccc(Cl)cc4)CC3)cc2)cc1S(=O)(=O)C(F)(F)F [AZD4320] + Cc1cc2ncnn2cc1Nc1ncc2c(n1)n(C1CCOCC1)c(=O)n2C [AZD7648] (first compound max 1 µM, 7x7, partner max 10 µM)
OUTPUT: 0.238

INPUT: What combination Emax value was documented for this molecule, C=CCn1c(=O)c2cnc(Nc3ccc(N4CCN(C)CC4)cc3)nc2n1-c1cccc(C(C)(C)O)n1 [AZD1775] + Nc1ccn([C@@H]2O[C@H](CO)[C@@H](O)C2(F)F)c(=O)n1 [Gemcitabine] (first compound max 1 µM, partner max 0.3 µM) ?
OUTPUT: 0.724

INPUT: Entry under review: Cc1cc2ncnn2cc1Nc1ncc2c(n1)n(C1CCOCC1)c(=O)n2C [AZD7648] + C=CCn1c(=O)c2cnc(Nc3ccc(N4CCN(C)CC4)cc3)nc2n1-c1cccc(C(C)(C)O)n1 [AZD1775] (first compound max 10 µM, partner max 1 µM) . Reported combination Emax?
OUTPUT: 0.614
